Assay notes: Primary qHTS for delayed death inhibitors of the malarial parasite plastid, 48 hour incubation
Condition parameters: P. falciparum luciferase growth in erythrocytes; series mostly up to 28.7 µM
The campaign covered roughly 310,000 compounds. About 18,000 (5.8%) were called active. Not shown: some 22% with an inconclusive outcome. The call rests on the fitted dose curve; in most records, active means well fitted inhibition curve with a large enough effect; inconclusive means small, poorly fitted or top-dose-only effect, or another doubt; inactive means no such curve, though single readings can be large or run the other way. The full list was thinned out, with actives kept by preference.
Your reply should match one of these outcome classes. active, inactive

Consider the worked cases shown below.
{"Compound": "O=C(CC(c1ccccc1)c1cc(Cl)ccc1O)NCCN1CCOCC1 (stereo not given)", "Classification": "inactive"}
{"Compound": "COCCNC(=O)c1onc(CSc2cccc(C)c2)c1C(=O)O", "Classification": "inactive"}
{"Compound": "CN1CCN(c2ccc(NC(=O)c3ccc4c(c3)[nH]c(=O)n4Cc3ccc(F)cc3)cc2)CC1", "Classification": "active"}
{"Compound": "CC(C)n1c(=O)[nH]c2cc(C(=O)Nc3ccccc3)ccc21", "Classification": "inactive"}
{"Compound": "OC(c1ccc(Cl)cc1)C(CN1CCOCC1)c1ccccc1 (stereo not given)", "Classification": "active"}

Name the outcome recorded for COc1ccccc1CSc1nc2ccccc2[nH]1 in the assay.
inactive

Name the outcome recorded for C=C1c2c(Cl)ccc(O)c2C(O)=C2C(=O)[C@]3(O)C(O)=C(C(N)=O)C(=O)[C@@H](N(C)C)[C@@H]3[C@@H](O)C12 (stereo not given in full) in the assay.
active

Name the outcome recorded for O=C(NCc1ccccc1)c1onc(CSc2nc3ccccc3[nH]2)c1C(=O)NCc1ccccc1 in the assay.
active

Name the outcome recorded for CCn1c(SCC(=O)NC2CC2)nnc1-c1ccncc1 in the assay.
inactive

Name the outcome recorded for CC1=NN(/C(=N\c2nnc(C)s2)Nc2ccccc2)[C@H](c2ccc(C)cc2)S1 in the assay.
active

* * *

Assay notes: Primary qHTS for delayed death inhibitors of the malarial parasite plastid, 48 hour incubation
Condition parameters: P. falciparum luciferase growth in erythrocytes; series mostly up to 28.7 µM
The whole screen tested about 310,000 compounds, of which about 18,000 (5.8%) were called active. Roughly 22% stayed inconclusive and do not appear here. Calls follow the shape of the dose curve; as a rule, active = well fitted inhibition curve with a large enough effect; inconclusive = small, poorly fitted or top-dose-only effect, or another doubt; inactive = no such curve, though single readings can be large or run the other way. This is one part of a sample in which actives are shown more often than they occur.
Your reply should match one of these outcome classes. active, inactive

Consider the worked cases shown below.
{"Molecule": "CCS(=O)(=O)N1CCN(C(=O)c2cccs2)CC1", "Classification": "inactive"}
{"Molecule": "CCSc1nsc(NC(=O)Nc2ccccc2OC)n1", "Classification": "inactive"}
{"Molecule": "CCn1c(C)cc(=O)cc1-c1ccc(Cl)cc1", "Classification": "inactive"}
{"Molecule": "COc1ccc(Cn2c(-c3ccc(Cl)cc3)c[n+]3ccccc23)cc1", "Classification": "active"}
{"Molecule": "Cc1ccc(S(=O)(=O)N(C)CC(=O)OCC(=O)Nc2ccccc2)cc1", "Classification": "inactive"}
{"Molecule": "Cc1ccc(C(=O)CS(C)(=O)=O)cc1", "Classification": "inactive"}
{"Molecule": "CCN(CC)c1ccc(/C=N/Nc2nc(C)cc(C)n2)c(O)c1", "Classification": "active"}
{"Molecule": "Cc1ccc(-c2nn(-c3ccc(F)cc3)cc2C(=O)NCC(c2cccs2)N2CCOCC2)cc1 (stereo unspecified)", "Classification": "active"}

Name the outcome recorded for Cc1ccc(-c2c[n+](CC(=O)Nc3ccccc3)c3n2CCC3)cc1 in the assay.
active

Name the outcome recorded for CC(C)(C)C1CCC(C(=O)NCC(c2cccs2)N2CCOCC2)CC1 (stereo unspecified) in the assay.
inactive

Name the outcome recorded for Cc1ccc(C(=O)CSc2ccccc2C(=O)O)cc1 in the assay.
inactive

* * *

Assay notes: Primary qHTS for delayed death inhibitors of the malarial parasite plastid, 48 hour incubation
Condition parameters: P. falciparum luciferase growth in erythrocytes; series mostly up to 28.7 µM
In all, about 310,000 compounds went through this assay and about 18,000 (5.8%) were called active. Roughly 22% stayed inconclusive and do not appear here. The call rests on the fitted dose curve; in most records, active means well fitted inhibition curve with a large enough effect; inconclusive means small, poorly fitted or top-dose-only effect, or another doubt; inactive means no such curve, though single readings can be large or run the other way. This excerpt belongs to a sample that is enriched for actives.
Your reply should match one of these outcome classes. T for active, F for inactive

{"Molecule": "O=C(NCc1ccncc1)C1CCCN(S(=O)(=O)c2ccc(Br)cc2)C1 (stereo not drawn)", "Classification": "F"}
{"Molecule": "CCOc1cc(/C=N/NC(=O)CN2CCCCC2)ccc1O", "Classification": "F"}

Name the outcome recorded for O=C(COC(=O)Cc1ccccc1F)NNC(=O)c1ccc(Cl)cc1 in the assay.
F

* * *

Assay notes: Primary qHTS for delayed death inhibitors of the malarial parasite plastid, 48 hour incubation
Condition parameters: P. falciparum luciferase growth in erythrocytes; series mostly up to 28.7 µM
Text: The goal of this screen is to discover new antimalarial compounds that act by inhibiting the development of the apicoplast in the malarial parasite Plasmodium falciparum. […] We have developed a cell-based assay that measures parasite growth based on the expression of an integrated copy of a firefly luciferase reporter. […] Growth inhibition is detected by a decrease in luciferase activity. […]
Screen size: about 310,000 compounds; about 18,000 (5.8%) were called active. Another 22% or so got no clear call; they are omitted. The call rests on the fitted dose curve; in most records, active means well fitted inhibition curve with a large enough effect; inconclusive means small, poorly fitted or top-dose-only effect, or another doubt; inactive means no such curve, though single readings can be large or run the other way. Many of the other results were omitted from the sample, so actives are more common in it than they were.
Your reply should match one of these outcome classes. active, inactive

Consider the worked cases shown below.
{"Compound": "COc1ccc(OC)c(NC(=O)c2cccc(S(=O)(=O)N3CCN(C(C)=O)CC3)c2)c1", "Classification": "inactive"}
{"Compound": "CC(=O)NC(=O)c1ccccc1O", "Classification": "inactive"}
{"Compound": "CCc1ccc(C(=O)NN=C2CCCCCC2)s1", "Classification": "inactive"}
{"Compound": "O=c1ccc(S(=O)(=O)N2CCCC2)cn1Cc1nc(-c2ccccc2)no1", "Classification": "inactive"}
{"Compound": "COc1ccc(N2CCN(C(=O)c3ccc(N4CCCCS4(=O)=O)cc3)CC2)cc1", "Classification": "inactive"}

Name the outcome recorded for CC(CCc1ccc(O)cc1)NCc1ccc(Cl)cc1Cl (centres undefined) in the assay.
inactive

Name the outcome recorded for Cc1cccc(CN2CCC(n3nccc3NC(=O)c3ccccc3C)CC2)n1 in the assay.
inactive

Name the outcome recorded for COC(=O)c1c(C)[nH]c(C(=O)NCCc2ccc(S(N)(=O)=O)cc2)c1C in the assay.
inactive

Name the outcome recorded for Cc1ccc(CC(=O)Nc2ccc(S(=O)(=O)N3CCOCC3)cc2)cc1C in the assay.
active

Name the outcome recorded for O=C(Nc1ccc(NC(=O)c2cccs2)cn1)c1ccco1 in the assay.
inactive

Name the outcome recorded for O=C(NNS(=O)(=O)c1ccc([N+](=O)[O-])cc1)C1CCCCC1 in the assay.
inactive

* * *

Assay notes: Primary qHTS for delayed death inhibitors of the malarial parasite plastid, 48 hour incubation
Condition parameters: P. falciparum luciferase growth in erythrocytes; series mostly up to 28.7 µM
The whole screen tested about 310,000 compounds, of which about 18,000 (5.8%) were called active. Inconclusive results (about 22%) are left out. Calls come from the whole dose curve; as a rule, active = well fitted inhibition curve with a large enough effect; inconclusive = small, poorly fitted or top-dose-only effect, or another doubt; inactive = no such curve, though single readings can be large or run the other way. The entries come from a sample that favours actives as a whole.
Your reply should match one of these outcome classes. 1.0 for active, 0.0 for inactive

Name the outcome recorded for Fc1ccccc1Cn1cnc(NC(=S)NCCc2ccccc2)n1 in the assay.
0.0

Name the outcome recorded for CCC(c1nnnn1Cc1ccco1)N(Cc1cc2cc(OC)ccc2[nH]c1=O)C1CCCCC1 (configuration not stated) in the assay.
1.0

Name the outcome recorded for CCC(c1nnnn1Cc1ccccc1)N(Cc1cc2cc(OC)ccc2[nH]c1=O)CC1CCCO1 (configuration not stated) in the assay.
1.0

Name the outcome recorded for COC(=O)CSc1nc2ccccc2c(=O)n1Cc1ccccc1 in the assay.
0.0

Name the outcome recorded for COc1ccc(CSc2nc(N3CCOCC3)c3c(c2C#N)CC(C)(C)OC3)cc1 in the assay.
1.0

Name the outcome recorded for NC(=O)NC(CC(=O)NNC(=O)c1ccccn1)c1ccc(Cl)cc1 (configuration not stated) in the assay.
0.0

Name the outcome recorded for CCOc1ccc2[nH]c(=O)c(CN(Cc3nnnn3CCc3ccccc3)CC3CCCO3)cc2c1 (configuration not stated) in the assay.
1.0

Name the outcome recorded for O=C(c1cccs1)N(Cc1cc2ccccc2[nH]c1=O)CC1CCCO1 (configuration not stated) in the assay.
0.0

* * *

Assay notes: Primary qHTS for delayed death inhibitors of the malarial parasite plastid, 48 hour incubation
Condition parameters: P. falciparum luciferase growth in erythrocytes; series mostly up to 28.7 µM
Screen size: about 310,000 compounds; about 18,000 (5.8%) were called active. Not shown: some 22% with an inconclusive outcome. Calls follow the shape of the dose curve; as a rule, active = well fitted inhibition curve with a large enough effect; inconclusive = small, poorly fitted or top-dose-only effect, or another doubt; inactive = no such curve, though single readings can be large or run the other way. The full list was thinned out, with actives kept by preference.
Your reply should match one of these outcome classes. active, inactive

{"Compound": "COc1cccc(C(=O)Nc2ccc(N3CCN(C(=O)c4ccco4)CC3)cc2)c1", "Classification": "inactive"}

Name the outcome recorded for CS(=O)(=O)c1ccc(C(=O)OCC(=O)NNC(=O)COc2ccc(Cl)cc2)cc1 in the assay.
inactive

Name the outcome recorded for O=C(CN1C(=O)CSC1=O)N1CCCC(Nc2ccc(F)cc2)C1 (configuration not stated) in the assay.
inactive

Name the outcome recorded for Cc1ccccc1-c1nc(C#N)c(NCc2ccco2)o1 in the assay.
inactive

Name the outcome recorded for O=S(=O)(c1cccc(-c2cn3ccccc3n2)c1)N1CCCC1 in the assay.
inactive

Name the outcome recorded for Cc1cc(NCc2ccco2)n2c(nc3ccccc32)c1C#N in the assay.
active

Name the outcome recorded for COc1ccc(C(=O)CCc2ccccc2O)c(OC)c1 in the assay.
inactive

Name the outcome recorded for Cc1ccc(CC2C(=O)N(c3ccc(F)cc3)C(=O)C2C)cc1 (configuration not stated) in the assay.
inactive

Name the outcome recorded for CCc1nc2ccc(C(=O)N3CCN(c4cccc(Cl)c4)CC3)cc2nc1CC in the assay.
inactive
